Reference source: the RNAGym collection of RNA variant scans (doi:10.7554/elife.90254)

B1: OR4K15 (parent)
chain: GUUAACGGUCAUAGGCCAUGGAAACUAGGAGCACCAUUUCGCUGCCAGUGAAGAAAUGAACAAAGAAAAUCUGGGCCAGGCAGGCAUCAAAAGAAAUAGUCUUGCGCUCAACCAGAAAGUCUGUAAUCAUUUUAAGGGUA

Variants of: B1
experiment-description: self-cleavage, relative activity (ratio to wild type); higher = more cleavage; in vitro, sequencing; the parent is a self-cleaving ribozyme
Decision: self-cleavage >= 1 yields satisfied, all other cases yield not satisfied.

INSERT INTO assay_data (sequence_chain, group_label) VALUES
  ('GUUAACGGUCAUAGGCCAUGGAAACUAGAAGCACCAUUUCGCUGCCAGUGAAGAAAUGAACAAAGAAAAUCUGGGCCAGGCAGGCAUCAAAAGAAACAGUCUUGCGCUCAACCAGAAAGUCUGUAAUCAUUUUAAGGGUA [G29A U97C]', 'satisfied'),
  ('GUUAACGGUCAUAGGCCAUGGAAACUAGGAGCACCAUUUCGCUGUCAGUGAAGAAAUGAACAAAGAAAAUCUGGGCCAGGCAGGCAUCAAAAGAAAUAGUCUUGCGCUCAACCAGAAAGUCUGUAAUCGUUUUAAGGGUA [C45U A129G]', 'satisfied'),
  ('GUUAACGGUCAUAGGCCAUGGAAACUAGGAGCACCAUUUCGCUACCAGUGAAGAAAUGAACAAGGAAAAUCUGGGCCAGGCAGGCAUCAAAAGAAAUAGUCUUGCGCUCAACCAGAAAGUCUGUAAUCAUUUUAAGGGUA [G44A A64G]', 'satisfied'),
  ('GUUAACGGUCAUAGGCCAUGGAAACUAGGAGCACCAUUUCGCUGCCUGUGAAGAAAUGAACAAAGAAAAUCUGGGCCAGGCAGGCAUCAAAAGAAAUAGUCUUGCGCUCAACCAGAAAGUCUGUACUCAUUUUAAGGGUA [A47U A126C]', 'not satisfied'),
  ('GUUUACGGUCAUAGGCCAUGGAAACUAGGAGCACCAUUUCGCUGCCAGUGAAGAAAUGAACAAAGAAAAUCAGGGCCAGGCAGGCAUCAAAAGAAAUAGUCUUGCGCUCAACCAGAAAGUCUGUAAUCAUUUUAAGGGUA [A4U U72A]', 'not satisfied'),
  ('GUUAACGGUCAUAGGCCAUGGAAACUAGGAGCACCAUUUCGCUGCCAGUGAAGAAAUGAGCAAAGAAAAUCUGGGCCAGGCAGGCGUCAAAAGAAAUAGUCUUGCGCUCAACCAGAAAGUCUGUAAUCAUUUUAAGGGUA [A60G A86G]', 'satisfied'),
  ('GUUAACGGUCAUAGGCCAUGGAAACUAGGAGCACCAUUUCGCUGCCAGUGAAGAAAUGAACAAAGAAAAUCUGGGCCAGGCAGGCAUCAAAAGAAAUAGUCUUGCGCUCAACCAGAAAGUCAGUAAUCAUUCUAAGGGUA [U122A U132C]', 'satisfied'),
  ('GUUAACGGUCAUAGGCCAUGGAAACUAGGAGCACCAUUUCGCUGCCAGUGAAGGAAUGAACAAAGAAAAUCUGGGCCAGGCAGGCAUCAAAAGAAAUAGUCUUGCGCUCAACCAGAAAGUCUGUAAUCAUUUUAAGGGUA [A54G]', 'satisfied'),
  ('GUUAACGGUCAUAGGCCAUGGAAGCUAGGAGCACCAUUUCGCUGCCAGUGAAGAAAUGAACAAAGAAAAUCUGGGCCAGGCAGGCAUCAAAAGAAAUAGUCUUGCGCUCAACCAGAAAGUCUGUAAUCGUUUUAAGGGUA [A24G A129G]', 'satisfied'),
  ('GUUAACGGUCAUAGGCCAUGGAAACUAGGAGCACCAUUUCGCUGCCAGUGAAGAAAUGAACAAAGAAAUUCUGGGCCAGGCAGGCAUCAAAAGAAGUAGUCUUGCGCUCAACCAGAAAGUCUGUAAUCAUUUUAAGGGUA [A69U A96G]', 'satisfied'),
  ('GUUAACGGUCAUAGGCCAUGGAAACUAGGAGCACCAUUUCGCUGCCAGUGAAGAAAUGAACAAAGAAAAUCUGAGCCAGGCAGGCAUCAAAAGAAAUAGUCUUGCGCUCAACCAGAAGGUCUGUAAUCAUUUUAAGGGUA [G74A A118G]', 'not satisfied'),
  ('GUUAACGGUCAUAGGCCAUGAAAACUAGGAGCACCAUUUCGCUGCCAGUGAAGAAAUGAACAAAGAAAAUCUGGGCCAGGCAGGCAUCAAAAGAAAUUGUCUUGCGCUCAACCAGAAAGUCUGUAAUCAUUUUAAGGGUA [G21A A98U]', 'satisfied'),
  ('GUUAACGGGCAUAGGCCAUGGAAACUAGGAGCACCAUUUCGCUGCCAGUGAAGAAAUGAACAAAGAAAAUCUGGGCCAGGCAGGCAUCGAAAGAAAUAGUCUUGCGCUCAACCAGAAAGUCUGUAAUCAUUUUAAGGGUA [U9G A89G]', 'satisfied'),
  ('GUUAACGGUCAUAGGCCAAGGAAACUAGGAGCACCAUUUCGCUGCCAGUGAAGAAAUGAACAAAGAAAAUCUGGGCCAGGCAGGCAUCAGAAGAAAUAGUCUUGCGCUCAACCAGAAAGUCUGUAAUCAUUUUAAGGGUA [U19A A90G]', 'not satisfied'),
  ('GUUAACGGUCAUAGGCCAUGGAAACUAGGAGCACCAUUUCGCUGCCAGUGAAGAAAUGAACAAAGAAAAUCUGGGCCAGGCAGGCUUCAAAAGAAAUAGUCUUGCGCUCAACCAGAAAGUCUGUAAUCAUUUUAAGGGUG [A86U A140G]', 'satisfied'),
  ('GUUAACGGUCAUAGGCCAUGGAAACUAGGAGCACCAUUUCGCUGCCAGUGAAGAAAUGAGCAAAGUAAAUCUGGGCCAGGCAGGCAUCAAAAGAAAUAGUCUUGCGCUCAACCAGAAAGUCUGUAAUCAUUUUAAGGGUA [A60G A66U]', 'satisfied'),
  ('GUUAACGGUCAUAGGCCAUGGAAACUAGGAGCACCAUUUCGCUGCCAGUGAAGAAAUGAACAAAGAAAAUCUGGGCCAGGCAGGCAACAAAAGAAAUAGCCUUGCGCUCAACCAGAAAGUCUGUAAUCAUUUUAAGGGUA [U87A U100C]', 'satisfied'),
  ('GUUAACGGUCAUAGGCCAUGGAAACUAGGAGCACCAUUUCGCUUCCAGUGAAGAAAUGGACAAAGAAAAUCUGGGCCAGGCAGGCAUCAAAAGAAAUAGUCUUGCGCUCAACCAGAAAGUCUGUAAUCAUUUUAAGGGUA [G44U A59G]', 'satisfied'),
  ('GUUAACGGUCAUAGGCCAUGGAAACUAGGAGCACCAUUUCGCUGCCAGUGAAGAAAUGAACAAAGAAAAUCUGGACUAGGCAGGCAUCAAAAGAAAUAGUCUUGCGCUCAACCAGAAAGUCUGUAAUCAUUUUAAGGGUA [G75A C77U]', 'not satisfied'),
  ('GUUAACGGUCAUAGGCCAUGGAAACUAGGAGCACCAUUUCUCUGCCAGUGAAGAAAUGAACAAAGAAAAUCUGGGCCAGGCAGGCAUCAAAAGAAAUAGUCUUGCGCUCAACCAGAAAGUCCGUAAUCAUUUUAAGGGUA [G41U U122C]', 'satisfied'),
  ('GUUAACGGUCAUAGGCCAUGGAAACUAGCAGCACCAUUUCGCUGCCAGUGAAGAAAUGAACAAAGAAAAUCUGGGCCAGGCAGGCAUCAAAAGAAGUAGUCUUGCGCUCAACCAGAAAGUCUGUAAUCAUUUUAAGGGUA [G29C A96G]', 'satisfied'),
  ('GUUAACGGUCAUAGGCCAUGGAAUCUAGGAGCACCAUUUCGCUGCCAGUGAAGAAAUGAACAAAGAAAAUCUGGGCCCGGCAGGCAUCAAAAGAAAUAGUCUUGCGCUCAACCAGAAAGUCUGUAAUCAUUUUAAGGGUA [A24U A78C]', 'not satisfied');
